# credit: patent US20250361268A1

So I've got a bunch of binders here, and I need their EC50 for [Ca2+] values.
Biological target: T1, FPR1 (UniProt P21462 1-350, limits assumed)
T1 sequence (looked up): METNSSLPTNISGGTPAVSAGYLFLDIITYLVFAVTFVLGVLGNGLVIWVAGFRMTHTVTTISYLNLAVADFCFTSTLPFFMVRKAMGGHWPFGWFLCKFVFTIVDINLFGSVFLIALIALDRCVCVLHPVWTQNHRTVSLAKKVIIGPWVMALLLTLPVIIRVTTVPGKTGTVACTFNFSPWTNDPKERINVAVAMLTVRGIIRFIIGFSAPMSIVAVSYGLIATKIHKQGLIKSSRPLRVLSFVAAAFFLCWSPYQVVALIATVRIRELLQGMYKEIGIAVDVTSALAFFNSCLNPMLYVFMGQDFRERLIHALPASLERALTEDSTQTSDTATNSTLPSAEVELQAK
Experiment: cell-based or functional assay

[
  {
    "Binder": "RMRYKVM (HELM PEPTIDE1{[CCCCCCCC(=O)[*:2]].R.M.R.Y.K.V.[dM].[am]}$$$$V2.0; SMILES CCCCCCCC(=O)N[C@@H](CCCNC(=N)N)C(=O)N[C@@H](CCSC)C(=O)N[C@@H](CCCNC(=N)N)C(=O)N[C@@H](Cc1ccc(O)cc1)C(=O)N[C@@H](CCCCN)C(=O)N[C@H](C(=O)N[C@H](CCSC)C(N)=O)C(C)C) [peptide of SEQ ID NO 8]",
    "EC50 for [Ca2+]": "> 10 µM"
  },
  {
    "Binder": "KMKYKPM (HELM PEPTIDE1{[CCCCCCCC(=O)[*:2]].K.M.K.Y.K.P.[dM].[am]}$$$$V2.0; SMILES CCCCCCCC(=O)N[C@@H](CCCCN)C(=O)N[C@@H](CCSC)C(=O)N[C@@H](CCCCN)C(=O)N[C@@H](Cc1ccc(O)cc1)C(=O)N[C@@H](CCCCN)C(=O)N1CCC[C@H]1C(=O)N[C@H](CCSC)C(N)=O) [peptide of SEQ ID NO 69]",
    "EC50 for [Ca2+]": "> 10 µM"
  }
]

Moving on to the next binder.
Input: Tell me measured EC50 for [Ca2+] for IKYKVM (HELM PEPTIDE1{[CCCC(=O)[*:2]].I.K.Y.K.V.[dM].[am]}$$$$V2.0; SMILES CCCC(=O)N[C@H](C(=O)N[C@@H](CCCCN)C(=O)N[C@@H](Cc1ccc(O)cc1)C(=O)N[C@@H](CCCCN)C(=O)N[C@H](C(=O)N[C@H](CCSC)C(N)=O)C(C)C)[C@@H](C)CC) [peptide of SEQ ID NO 136] please.
Output: > 10 µM
